Tested on: leukemia L1210 cells
ASSAY_METHOD_TEXT: anticancer activity test against mouse leukemia L1210 cells implanted in BDF1 mice
Format: in vivo
TEST_SETTINGS: 30 mg/kg, intra-peritoneal, days 1, 5 and 9
Give measured Increased life span (ILS) for each item. Keep answers brief.
Report the value in % with no unit label.

Exercise: Name the reported Increased life span (ILS) value associated with the compound O=C1[O][Pt-2]2([NH2+]C3CCCCC3[NH2+]2)[O]C(=O)C1NP1(NC2C(=O)[O][Pt-2]3([NH2+]C4CCCCC4[NH2+]3)[O]C2=O)=NP(NC2C(=O)[O][Pt-2]3([NH2+]C4CCCCC4[NH2+]3)[O]C2=O)(NC2C(=O)[O][Pt-2]3([NH2+]C4CCCCC4[NH2+]3)[O]C2=O)=NP(NC2C(=O)[O][Pt-2]3([NH2+]C4CCCCC4[NH2+]3)[O]C2=O)(NC2C(=O)[O][Pt-2]3([NH2+]C4CCCCC4[NH2+]3)[O]C2=O)=N1 (racemic) [Example 16, [NP(Am·Pt(dach)2]3]
Solution: 222.1

Exercise: Could you tell me which Increased life span (ILS) is on file for CC1(C)C[NH2+][Pt-2]2([NH2+]C1)[O]C(=O)C[C@H](NP1(N[C@H]3CC(=O)[O][Pt-2]4([NH2+]CC(C)(C)C[NH2+]4)[O]C3=O)=NP(N[C@H]3CC(=O)[O][Pt-2]4([NH2+]CC(C)(C)C[NH2+]4)[O]C3=O)(N[C@H]3CC(=O)[O][Pt-2]4([NH2+]CC(C)(C)C[NH2+]4)[O]C3=O)=NP(N[C@H]3CC(=O)[O][Pt-2]4([NH2+]CC(C)(C)C[NH2+]4)[O]C3=O)(N[C@H]3CC(=O)[O][Pt-2]4([NH2+]CC(C)(C)C[NH2+]4)[O]C3=O)=N1)C(=O)[O]2 [Example 2, [NP(L-Asp·Pt(dmpda))2]3] ?
Solution: 165.0

Exercise: So what's the measured Increased life span (ILS) for this one? O=C1CC[C@H](NP2(N[C@H]3CCC(=O)[O][Pt-2]4([NH2+]CC[NH2+]4)[O]C3=O)=NP(N[C@H]3CCC(=O)[O][Pt-2]4([NH2+]CC[NH2+]4)[O]C3=O)(N[C@H]3CCC(=O)[O][Pt-2]4([NH2+]CC[NH2+]4)[O]C3=O)=NP(N[C@H]3CCC(=O)[O][Pt-2]4([NH2+]CC[NH2+]4)[O]C3=O)(N[C@H]3CCC(=O)[O][Pt-2]4([NH2+]CC[NH2+]4)[O]C3=O)=N2)C(=O)[O][Pt-2]2([NH2+]CC[NH2+]2)[O]1 [Example 13, [NP(L-Glu·Pt(en))2]3]
Solution: 277

Exercise: Reported Increased life span (ILS), compound O=C1C[C@H](NP2(N[C@H]3CC(=O)[O][Pt-2]4([NH2+]CC[NH2+]4)[O]C3=O)=NP(N[C@H]3CC(=O)[O][Pt-2]4([NH2+]CC[NH2+]4)[O]C3=O)(N[C@H]3CC(=O)[O][Pt-2]4([NH2+]CC[NH2+]4)[O]C3=O)=NP(N[C@H]3CC(=O)[O][Pt-2]4([NH2+]CC[NH2+]4)[O]C3=O)(N[C@H]3CC(=O)[O][Pt-2]4([NH2+]CC[NH2+]4)[O]C3=O)=N2)C(=O)[O][Pt-2]2([NH2+]CC[NH2+]2)[O]1 [Example 4, [NP(L-Asp·Pt(en))2]3] : ____
Solution: 250.9
